target: Vg9/Vd2 TCR on SKW3_4 cells (UniProt Q99603); assay: flow cytometry DRC binding 37 C, SKW3_4 cells expressing Vg9/Vd2
Sequence (Q99603 21-122, chain 1 of 2): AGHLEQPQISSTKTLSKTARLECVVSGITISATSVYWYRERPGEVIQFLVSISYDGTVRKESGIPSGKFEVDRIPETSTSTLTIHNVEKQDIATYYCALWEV
Sequence (A0JD36 20-115, chain 2 of 2, further chain): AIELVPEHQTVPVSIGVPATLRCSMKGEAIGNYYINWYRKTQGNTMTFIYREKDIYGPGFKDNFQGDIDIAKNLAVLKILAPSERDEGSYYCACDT
measurement-name: Max. Activity (fold over background)
Form field (numeric): enter value without unit.

[
  {
    "binder": "VG9B136 (antibody, human IgG1, kappa, V domains shown) VH: QVQLQQSGPGLVKPSQTLSLTCAISGDSVSSNRAAWNWIRQSPSKGLEWLGRTYYRSKWYNEYAASVKSRMSINPDTSKNQFSLQLNSVTPEDTALYYCARDLWELREACDIWGQGTMVTVSS VL: DIVMTQSPSFLSTFVGDRVTITCRASQGISSYLAWYQQKPGKVPKLLIYVASTLQSGVPSRFSGSGSGTEFTLTISSLQPEDFATYYCQQLNSYPFTFGPGTKVDIKR",
    "measurement-name": "Max. Activity (fold over background)",
    "result-value": 181
  },
  {
    "binder": "VG9B392 (antibody, human IgG1, lambda, V domains shown) VH: QVQLVQSGAEVKRPGASAKVSCKTSGYTFTGYYIHWVRQAPGQGLEWMGWINPNSGYTNSAQKFQGRVSMTRDTSISTVYMELSRLRSDDTAVYYCAREDDAFDIWGQGTLVTVSS VL: SSELTQDPAVSVALGQTVRITCQGDSLRSYYARWYQQKPGQAPVLVIYGKNNRPSGIPDRFSGSSSGDTASLTITGALAEDEADYYCNSRDNSGNHVVFGGGTKVTVLG",
    "measurement-name": "Max. Activity (fold over background)",
    "result-value": 154
  },
  {
    "binder": "VG9B144 (antibody, human IgG1, lambda, V domains shown) VH: QVQLVQSGAEVKKPGASVKVSCKASGYTFTGYYMHWMRQAPGQGLEWMGWINPNSGATNKEQKFQGRVTMTRDTSISTAYMELSRLRSDDTAVYYCAREDDAFDVWGQGTMVTVSS VL: SSELTQDPAVSVALGQTVRITCQGDNLRNYYATWFQQKPGQAPVLVFFGKNNRPSGIPDRFSGSSSGDTASLTITGAQAEDEADYYCNSRDSSGNHVVFGGGTKLTVLG",
    "measurement-name": "Max. Activity (fold over background)",
    "result-value": 123
  }
]

May I ask what Max. Activity (fold over background) has been recorded for VG9B47 (antibody, human IgG1, kappa, V domains shown) VH: QVQLVQSGAEVKKPGSSVKVSCKASGGSFSNYAISWMRQAPGQGLEWMGGIIPFFGTPDYAQKFQGRVTITADKSTSTAYMELSSLRSEDTAVYYCSTGGGYGDYDYYYGINVWGQGTMVTVSS VL: DIVMTQSPLSSPVDLGQPASISCRSSQSLVHSDGNTYLSWLQQRPGQPPRLLIYKISNRFSGVPDRFSGSGAGTDFTLKISRVEAEDVGVYYCMQAKEFPLTLGGGTKVDIKR ?
162

Request: VG9B189 (antibody, human IgG1, lambda, V domains shown) VH: EVQLVQSGGGLVKPGASLKLSCAASGFTFSNHGMSWVRQTSDKRLEWVASITRGGDTTYYPDNVKGRFTISRENAKNTLYLQMSSLKSDDTALYYCTRGPLTVGYAMDYWGQGTTVTVSS VL: QSVVTQPPSASGSPGQSVTISCTGTSSDVGGYNYVSWYQQHPGKAPKLMIYEVSKRPSGVPDRFSGSKSGNTASLTVSGLQAEDEADYYCNSYAGSNNFEVFGGGTKVTVLG
46.1

Request: VG9B112 (antibody, human IgG1, kappa, V domains shown) VH: QVQLQQSGPGLVKPSQTLSLTCAISGDSVSSNSAAWNWIRQSPSRGLEWLGGTYYRSKWFNNYAVSVKSRITINPDTSTNQFSLQLNSVTPADTAVYYCARGEWGLRDAFDIWGQGTMVTVSS VL: DIQMTQSPSFLSASVGDRVIITCRASQGIHSYLAWYQQKPGKVPKLLIYVASTLQSGVPSRFSGSGSGTEFTLTISSLQPEDFATYYCQQLNSYPWTFGQGTKLEIKR
227

Request: VG9B386 (antibody, human IgG1, kappa, V domains shown) VH: EVQLVESGGGLVKPGGSLRLSCAASGFTFSSYSMIWVRQAPGKGLEWVSSIGSSSTYIYYADSVRGRFTISRDNAKTSLYLQMNSLRAEDTAMYFCARDGETGGFDYWGQGILVTVSS VL: EIVMTQSPGTLSLSPGERATLSCRASQSISRSYLAWYQQKPGQPPRLLIYGPSNRATGIPDRFSASGSGTDFTLTNSRLEPEDFAVYYCQQYGSLPLTFGGGTKVEIKR
211

Request: VG9B387 (antibody, human IgG1, lambda, V domains shown) VH: EVQLVESGAEVKKPGASVKVSCKASGFTFTGYYLQWVRQAPGQGLEWMGWINPNSGYTDYAQRFQDRVTMTRDTSINTAYMELSRLRSDDTAVYYCARLDDAFDVWGQGTMVTVSS VL: SYELTQDPAVSVALGQTVRITCQGDSLRNYYAIWYQQKPGQAPVLVIFGKNNRPSGIPDRFSGSSSGTTASLTITGTQAEDEADYYCNSRDSSGNHWVFGGGTKLTVLG
201

Values compiled from patent US20220125947A1.
